biological target: P-selectin (Homo sapiens); construct: P-selectin is isolated from human platelet lysates; experiment: Inhibition of human neutrophil adhesion to purified P-selectin immobilized on plastic wells; conditions: inhibiting the binding of human neutrophils to P-selectin
Where a SMILES comes first, the peptide text is derived from it. Bridges are numbered along the chain shown (N, C = ends). [ ]: non-standard residue; d: D form.
recordedEndpoint: pIC50
Numbers only, as −log10 of the molar value.

Here's what some known entries look like.
1. CC[C@H](C)[C@@H]1NC(=O)CNC(=O)CNC(=O)[C@H]([C@@H](C)CC)NC(=O)[C@H](CCCCN)NC(=O)[C@@H](N)CSSC[C@@H](C(N)=O)NC(=O)[C@H](Cc2c[nH]c3ccccc23)NC(=O)[C@H]([C@@H](C)O)NC(=O)[C@H](Cc2c[nH]c3ccccc23)NC1=O [(3)] (H-CKIGGIWTWC-NH2; disulfide 1-10)    3.88
2. CC(C)[C@@H](NC(=O)[C@@H](CCCCN)NC(=O)[C@H](NC(=O)[C@@H](Cc1c[nH]c2ccccc12)NC(=O)[C@H]1CSSC[C@@H](NC(=O)[C@@H](CCCCN)NC(=O)[C@H](N)CCCNC(=N)N)C(=O)NCC(=O)N[C@@H](Cc2ccccc2)C(=O)N1)[C@H](C)O)C(N)=O [(62)] (H-[dR][dK][dC]GF[dC][dW][dT][dK][dV]-NH2; disulfide 3-6)    3.27

In the following, a different compound is considered.
Q: Value lookup for pIC50; key = CC(C)[C@@H](NC(=O)[C@@H](Cc1c[nH]c2ccccc12)NC(=O)[C@H](NC(=O)[C@@H](Cc1c[nH]c2ccccc12)NC(=O)[C@H]1CSSC[C@@H](NC(=O)[C@H](CCCCN)NC(=O)[C@H](N)CCCNC(=N)N)C(=O)NCC(=O)N[C@@H](Cc2ccccc2)C(=O)N1)[C@H](C)O)C(N)=O [(34)] (H-[dR]K[dC]GF[dC][dW][dT][dW][dV]-NH2; disulfide 3-6)
Result: 4.05

----------
molecular target: P-selectin (Homo sapiens, UniProt P16109); construct: P-selectin is isolated from human platelet lysates; assay: Inhibition of human neutrophil adhesion to purified P-selectin immobilized on plastic wells; details: inhibiting the binding of human neutrophils to P-selectin
Sequence (P16109 42-830): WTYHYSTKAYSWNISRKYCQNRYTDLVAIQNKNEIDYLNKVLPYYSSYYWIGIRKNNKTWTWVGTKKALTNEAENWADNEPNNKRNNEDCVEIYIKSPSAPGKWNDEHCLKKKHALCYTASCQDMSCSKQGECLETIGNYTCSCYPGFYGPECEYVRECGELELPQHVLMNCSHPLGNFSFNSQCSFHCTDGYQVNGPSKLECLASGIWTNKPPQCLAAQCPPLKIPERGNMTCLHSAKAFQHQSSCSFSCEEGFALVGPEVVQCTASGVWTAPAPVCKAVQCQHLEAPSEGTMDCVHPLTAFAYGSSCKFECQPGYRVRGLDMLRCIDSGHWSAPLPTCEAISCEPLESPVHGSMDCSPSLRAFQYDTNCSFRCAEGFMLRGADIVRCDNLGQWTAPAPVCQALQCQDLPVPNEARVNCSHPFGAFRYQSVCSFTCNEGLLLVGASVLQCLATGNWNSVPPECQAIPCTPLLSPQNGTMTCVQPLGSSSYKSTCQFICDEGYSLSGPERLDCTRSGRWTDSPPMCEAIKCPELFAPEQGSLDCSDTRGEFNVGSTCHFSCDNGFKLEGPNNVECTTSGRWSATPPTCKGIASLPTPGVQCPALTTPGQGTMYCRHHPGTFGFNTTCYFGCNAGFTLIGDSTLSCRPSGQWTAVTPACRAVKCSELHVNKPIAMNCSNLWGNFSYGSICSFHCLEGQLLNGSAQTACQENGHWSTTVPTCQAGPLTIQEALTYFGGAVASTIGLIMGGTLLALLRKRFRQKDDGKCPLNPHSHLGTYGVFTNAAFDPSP
Where a SMILES comes first, the peptide text is derived from it. Bridges are numbered along the chain shown (N, C = ends). [ ]: non-standard residue; d: D form.
recordedEndpoint: IC50 (µM)
One number for each entry, in µM.

Here's what some known entries look like.
1) CC(C)[C@@H](NC(=O)[C@@H](Cc1c[nH]c2ccccc12)NC(=O)[C@H](NC(=O)[C@@H](Cc1c[nH]cn1)NC(=O)[C@H]1CSSC[C@@H](NC(=O)[C@@H](CCCCN)NC(=O)[C@H](N)CCCNC(=N)N)C(=O)NCC(=O)N[C@@H](Cc2ccccc2)C(=O)N1)[C@H](C)O)C(N)=O [(48)] (H-[dR][dK][dC]GF[dC][dH][dT][dW][dV]-NH2; disulfide 3-6)    406
2) CC[C@H](C)[C@@H]1NC(=O)CNC(=O)[C@H](NC(=O)[C@@H](CCCCN)NC(=O)[C@H](N)CCCNC(=N)N)CSSC[C@H](C(=O)N[C@H](Cc2c[nH]c3ccccc23)C(=O)N[C@@H](C(=O)N[C@H](Cc2c[nH]c3ccccc23)C(=O)N[C@@H](C(N)=O)C(C)C)[C@H](C)O)NC1=O [(68)] (H-[dR][dK][dC]GI[dC][dW][dT][dW][dV]-NH2; disulfide 3-6)    3.7

Q: Value lookup for IC50; key = CC[C@@H](C)[C@H]1NC(=O)[C@H]([C@@H](C)CC)NC(=O)[C@H](NC(=O)[C@@H](CCCCN)NC(=O)[C@H](N)CCCNC(=N)N)CSSC[C@H](C(=O)N[C@H](Cc2c[nH]c3ccccc23)C(=O)N[C@@H](C(=O)N[C@H](Cc2c[nH]c3ccccc23)C(=O)N[C@@H](C(N)=O)C(C)C)[C@H](C)O)NC1=O [(67)] (H-[dR][dK][dC]I[dI][dC][dW][dT][dW][dV]-NH2; disulfide 3-6)
Result: 11.1
